Source: patent US8178522B2

Molecular target: GABA A α5 (α5β3γ2) (Homo sapiens, UniProt P18507+P31644)
Construct: expressed in transfected cells; host or cells: HEK293, transiently transfected; membrane preparation
Assay: [3H]flumazenil competition binding, human GABA A α5 receptor
Settings: human receptor α5β3γ2 transiently transfected in HEK293 cells; competition for [3H]flumazenil 0.5 nM; 1 hour at 4° C.; means of two determinations; read-out: hKi GABA A α5
pKi: −log10 of the molar value.
MEASURED_ENDPOINT: pKi

Below are worked cases with known answers.
CCCCc1noc(C)c1/C=C/c1nc(C)c(C(=O)NN(C)C)s1
8.36
Cc1onc(-c2ccccc2)c1COc1ncc(C(=O)NC(C)(C)CO)s1
7.90
CNC(=O)c1sc(CCc2c(-c3ccc(F)cn3)noc2C)nc1C
7.60
Cc1nc(/C=C/c2c(-c3ccc(F)cn3)noc2C)sc1C(N)=O
8.39
Cc1onc(-c2ccccc2)c1/C=C/c1ncc(C(=O)NC2CCOC2)s1 (stereo in doubt)
8.77

[a] Cc1nc(CCc2c(-c3ccccc3)noc2C)sc1C(N)=O
[b] CCCCc1noc(C)c1/C=C/c1nc(C)c(C(=O)NC(CC)CO)s1 (racemic)
[c] Cc1onc(-c2ccc(F)cn2)c1CCc1ncc(C(=O)NC(C)C)s1
[d] CCCCc1noc(C)c1COc1ncc(C(=O)NCCO)s1
[e] CCCCc1noc(C)c1/C=C/c1nc(C)c(C(=O)NC)s1
Order the items by recorded pKi; the first position goes to the largest value. In plain terms: list the labels in the order you were asked to.
b, e, c, d, a
(b: 8.51, e: 8.24, c: 7.97, d: 7.67, a: 7.47)

[I] Cc1onc(-c2ccc(F)cn2)c1/C=C/c1ncc(C(=O)N2CCS(=O)(=O)CC2)s1
[II] Cc1nc(CCc2c(-c3ccccc3)noc2C)sc1C(=O)NC1CCOCC1
[III] CCOC(=O)c1cnc(OCc2c(-c3ccccc3)noc2C)s1
List by increasing pKi. In plain terms: list the labels in the order you were asked to.
I, III, II

[1] CCCCc1noc(C)c1CCc1ncc(C(=O)NC2CCOCC2)s1
[2] Cc1onc(-c2ccccn2)c1CCc1ncc(C(=O)NCC(F)(F)F)s1
Smaller pKi value, 1 vs 2 ? I would appreciate it if you answered with the label of your choice.
1

[a] Cc1nc(CCc2c(-c3ccccn3)noc2C)sc1C(N)=O
[b] Cc1onc(-c2ccccc2)c1COc1ncc(C(=O)NC(C)CO)s1 (stereo not shown)
[c] CCCCc1noc(C)c1/C=C/c1nc(C)c(C(=O)NC(C)C)s1
Order the items by recorded pKi; the first position goes to the largest value. In plain terms: list the labels in the order you were asked to.
c, b, a

[I] Cc1onc(-c2ccc(F)cn2)c1CCc1ncc(C(=O)NCCO)s1
[II] Cc1nc(CCc2c(-c3ccc(F)cn3)noc2C)sc1C(=O)NC1CCOCC1
For the two items I and II , which reports the higher pKi value? I would appreciate it if you answered with the label of your choice.
II
(II: 8.28, I: 7.58)

[a] CNC(=O)c1sc(CCc2c(-c3ccccn3)noc2C)nc1C
[b] Cc1onc(-c2ccc(F)cn2)c1/C=C/c1ncc(C(=O)NC(C)C)s1
For the two items a and b , which reports the higher pKi value? I would appreciate it if you answered with the label of your choice.
b

[a] COC(=O)c1sc(CCc2c(-c3ccc(F)cn3)noc2C)nc1C
[b] Cc1nc(CCc2c(-c3ccccn3)noc2C)sc1C(=O)NC(C)C
For the two items a and b , which reports the higher pKi value? I would appreciate it if you answered with the label of your choice.
b
(b: 8.37, a: 7.63)

[a] CCCCc1noc(C)c1/C=C/c1nc(C)c(C(=O)N2CCC2)s1
[b] Cc1onc(-c2ccc(F)cn2)c1/C=C/c1ncc(C(=O)NC(C)(C)CO)s1
[c] Cc1nc(/C=C/c2c(-c3ccccc3)noc2C)sc1C(=O)NCCO
[d] CCCCc1noc(C)c1/C=C/c1nc(C)c(C(=O)NC2CCOC2)s1 (stereo not shown)
[e] CCCCc1noc(C)c1COc1ncc(C(=O)NC(C)C)s1
Order the items by recorded pKi; the first position goes to the largest value. In plain terms: list the labels in the order you were asked to.
c, d, e, b, a
